- ASSAYED SYSTEM: BRD4 BD1 (Homo sapiens, UniProt O60885)
- ASSAY DETAILS: Alpha Screen assay against tetra-acetylated histone H4 peptide
- CONDITION SUMMARY: read-out: IC50 BRD4 BD1
OBSERVATION TYPE: IC50 (nM)
Numbers only, in nM.

Enquiry: What measured IC50 goes with C=CC(=O)N1CCOc2ccc(-c3csc4c(=O)cc(N5CCOCC5)oc34)cc21 ?
Return: 228

====

- ASSAYED SYSTEM: BRD4 BD2 (Homo sapiens)
- ASSAY DETAILS: Alpha Screen assay against tetra-acetylated histone H4 peptide
- CONDITION SUMMARY: read-out: IC50 BRD4 BD2
OBSERVATION TYPE: pIC50
Numbers only, as −log10 of the molar value.

Enquiry: What measured pIC50 goes with C=CC(=O)N1CCOc2ccc(-c3csc4c(=O)cc(N5CCOCC5)oc34)cc21 ?
Return: 6.46
